- Assayed system: UniProt:Q9NYK1
- Sequence (Q9NYK1 27-1049): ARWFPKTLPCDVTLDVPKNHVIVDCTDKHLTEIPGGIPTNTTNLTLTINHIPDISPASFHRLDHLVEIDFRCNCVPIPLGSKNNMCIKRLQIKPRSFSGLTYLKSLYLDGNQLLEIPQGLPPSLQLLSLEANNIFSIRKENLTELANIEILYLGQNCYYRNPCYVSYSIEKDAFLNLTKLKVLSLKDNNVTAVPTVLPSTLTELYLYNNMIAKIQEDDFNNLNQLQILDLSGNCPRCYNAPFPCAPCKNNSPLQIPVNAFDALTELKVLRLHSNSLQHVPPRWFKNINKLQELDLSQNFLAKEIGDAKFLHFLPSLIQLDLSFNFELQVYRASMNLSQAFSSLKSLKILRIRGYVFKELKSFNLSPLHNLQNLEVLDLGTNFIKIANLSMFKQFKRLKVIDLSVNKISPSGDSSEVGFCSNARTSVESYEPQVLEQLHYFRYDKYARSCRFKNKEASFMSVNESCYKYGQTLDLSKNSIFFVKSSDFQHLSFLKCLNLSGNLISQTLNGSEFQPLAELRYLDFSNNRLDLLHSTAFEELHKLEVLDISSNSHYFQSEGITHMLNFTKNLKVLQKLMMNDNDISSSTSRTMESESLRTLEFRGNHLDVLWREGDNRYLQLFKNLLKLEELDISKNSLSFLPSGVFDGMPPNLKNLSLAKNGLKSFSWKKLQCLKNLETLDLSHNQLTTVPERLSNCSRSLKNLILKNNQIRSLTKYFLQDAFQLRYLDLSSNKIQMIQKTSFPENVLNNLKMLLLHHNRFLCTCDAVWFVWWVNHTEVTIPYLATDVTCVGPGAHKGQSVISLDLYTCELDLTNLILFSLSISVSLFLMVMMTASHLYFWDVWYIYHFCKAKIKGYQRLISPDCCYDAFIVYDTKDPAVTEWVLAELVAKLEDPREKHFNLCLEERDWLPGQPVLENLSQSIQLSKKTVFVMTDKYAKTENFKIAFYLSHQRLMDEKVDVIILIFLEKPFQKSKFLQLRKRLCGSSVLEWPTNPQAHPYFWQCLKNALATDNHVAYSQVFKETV
- Assay details: TLR7 inhibition reporter assay (HEK-Blue SEAP)
- Condition set: HEK-Blue cells overexpressing human TLR7, gardiquimod 7.5 μM, 22 hour incubation
pIC50: −log10 of the molar value.

# Compound, pIC50
rows = [
    ("COc1c(C)c(-c2cc3[nH]c(=O)n(C4CCC(N5CC6(COC6)C5)CC4)c3cc2C(C)C)cn2ncnc12 (single isomer, unassigned) [Example 269]", 8.24),
    ("COc1cc(-c2cc3[nH]c(=O)n(C4CCC(N5CC(OC)C5)CC4)c3cc2C(C)C)cn2ncnc12 (stereo not drawn) [Example 238]", 9.09),
    ("COc1cc(-c2cc3[nH]c(=O)n(C4CCC(N5CCC6(CC5)COC6)CC4)c3cc2C(C)C)cn2ncnc12 (stereo not drawn) [Example 240]", 8.45),
    ("CCCN1CCC(n2c(=O)[nH]c3cc(-c4cc(OC)c5ncnn5c4)c(C(C)C)cc32)CC1 [Example 155]", 8.20),
    ("CCN1CCC[C@@H](n2c(=O)[nH]c3cc(-c4cc(OC)c5ncnn5c4)c(C)cc32)C1 [Example 52]", 7.19),
    ("Cc1cc2c(cc1-c1cc(C)c3ncnn3c1)[nH]c(=O)n2[C@H]1CC[C@@H](N)CC1 [1 EE]", 7.71),
]
